# Test system: NOMO1
# assay.remarks: cell viability relative to DMSO control; higher = less cytotoxic
# experimental.conditions: RPMI 5 mM glucose + 10% FBS; 48 h; 1.71 µM
Labelling field: enter T if recorded cell viability is less than 90%. Enter F if it equals or exceeds that cut-off.

Please review the entries below; each comes with its answer.
>  <compound>
Cc1cc(CN2CCN(c3c(Br)cnc4[nH]c(-c5ccc(N6CCN(C)CC6)cc5)nc34)CC2)no1

>  <cat>
T

$$$$
>  <compound>
C=C(C)[C@@H]1CC[C@]2(C(=O)O)CC[C@]3(C)[C@H](CC[C@@H]4[C@@]5(C)CC[C@H](O)C(C)(C)[C@@H]5CC[C@]43C)[C@@H]12

>  <cat>
F

$$$$
>  <compound>
O=NN(CCCl)C(=O)NCCCl

>  <cat>
F

$$$$
>  <compound>
Cc1c(CCOc2ccc(C(=O)O)cc2)c2cc(Cl)ccc2n1C(c1ccccc1)c1ccccc1

>  <cat>
T

$$$$
>  <compound>
CCc1cc(Nc2nccc(-c3c(-c4ccc(OC)c(C(=O)Nc5c(F)cccc5F)c4)nc4ccccn34)n2)c(OC)cc1N1CCC(N2CCN([S+](C)(=O)[O-])CC2)CC1

>  <cat>
F

$$$$
>  <compound>
CCC(C)SSc1ncc[nH]1 (stereo not drawn)

>  <cat>
F

$$$$

Now for another entry.
Is the reported cell viability for "C/C=C(/C)C(=O)O[C@H]1C(C)=C2[C@H]([C@@H]1OC(=O)CCCCCCC)[C@@](C)(OC(C)=O)C[C@H](OC(=O)CCC)[C@@]1(O)[C@H]2OC(=O)[C@@]1(C)O" strictly below 90%?
T

Measured values drawn from the supplement of paper PMC11451515 for this set.
